# study_target: Isocitrate dehydrogenase [NADP] cytoplasmic (Homo sapiens, UniProt O75874, R132H)
# Sequence (O75874 2-414 R132H limits assumed): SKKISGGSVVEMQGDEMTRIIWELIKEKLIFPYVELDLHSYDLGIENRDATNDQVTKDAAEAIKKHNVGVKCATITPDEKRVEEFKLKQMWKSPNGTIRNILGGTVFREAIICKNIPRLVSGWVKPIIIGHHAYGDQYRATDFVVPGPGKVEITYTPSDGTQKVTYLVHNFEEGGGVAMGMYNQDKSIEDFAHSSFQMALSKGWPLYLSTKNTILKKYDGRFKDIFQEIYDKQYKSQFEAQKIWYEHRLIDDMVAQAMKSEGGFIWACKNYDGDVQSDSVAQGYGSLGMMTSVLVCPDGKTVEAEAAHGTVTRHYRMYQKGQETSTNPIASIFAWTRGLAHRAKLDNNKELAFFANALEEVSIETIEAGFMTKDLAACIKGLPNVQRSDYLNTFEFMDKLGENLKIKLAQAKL
# assay_protocol: Inhibition of IDH1 R132H mutant (unknown origin) using alpha-ketoglutarate and NADPH incubated for 60 mins by fluorescence based assay
reported_endpoint: IC50 (µM)

Solved entries:
1) CC(C)CCOc1nc(N2C[C@@H]3[C@H](C2)[C@H]3C(=O)O)ccc1C(=O)NCc1ccccc1    9.4
2) CC(C)CCOc1nc(N2C[C@@H]3[C@H](C2)[C@H]3C(=O)O)ccc1C(=O)NCCc1ccccc1    3.9
3) CC(C)CCOc1nc(N2C[C@@H]3[C@H](C2)[C@H]3C(=O)O)ccc1C(=O)Nc1cccc(CO)c1    3.2
4) CC(C)CCOc1nc(N2C[C@@H]3[C@H](C2)[C@H]3C(=O)O)ccc1C(=O)NC1CCCCC1    7.9

(A) O=C(O)C[C@@H]1CCCN(c2ccc(C(=O)NC3CCCCC3)c(OCc3ccccc3)n2)C1
(B) CC(C)CCOc1nc(N2C[C@@H]3[C@H](C2)[C@H]3C(=O)O)ccc1C(=O)NCc1cccnc1
(C) CC(C)CCOc1nc(-c2ccc(C(=O)O)cc2)ccc1C(=O)NC1C2CC3CC1CC(O)(C3)C2 (stereo not drawn)
Exam item: Rank the 3 compounds: largest IC50 first, smallest last. Write out the labels following the order that was asked for.
Marked response: A, B, C
(A: 8.6 µM, B: 5.6 µM, C: 3 µM)

====

# study_target: Isocitrate dehydrogenase [NADP] cytoplasmic (Homo sapiens, UniProt O75874, R132H)
# assay_protocol: Inhibition of IDH1 R132H mutant (unknown origin) using alpha-ketoglutarate and NADPH incubated for 60 mins by fluorescence based assay
pIC50: −log10 of the molar value.
reported_endpoint: pIC50

Recorded pIC50, per entry:
1. CC(C)CCOc1nc(N2C[C@@H]3[C@H](C2)[C@H]3C(=O)O)ccc1C(=O)Nc1cccc(B(O)O)c1    5.34
2. O=C(O)C[C@@H]1CCCN(c2ccc(C(=O)NC3CCCCC3)c(OCc3cccc(Cl)c3)n2)C1    5.00
3. O=C(O)C[C@@H]1CCCN(c2ccc(C(=O)NC3C4CC5CC3CC(O)(C5)C4)c(OCc3ccccc3Cl)n2)C1 (stereo partly drawn)    5.64
4. CCC(C)(C)Oc1nc(N2CCC[C@@H](CC(=O)O)C2)ccc1C(=O)NC1CCCCC1    4.85
5. CC(C)CCOc1nc(N2C[C@@H]3[C@H](C2)[C@H]3C(=O)O)ccc1C(=O)Nc1cccc(NS(C)(=O)=O)c1    5.27
6. CC(C)CCOc1nc(N2C[C@@H]3[C@H](C2)[C@H]3C(=O)O)ccc1C(=O)N[C@H](C)c1ccccc1    5.27
7. O=C(O)C[C@@H]1CCCN(c2ccc(C(=O)NC3CCCCC3)c(OCC3CCC3)n2)C1    4.70
8. Cc1cccc(COc2nc(N3CCC[C@@H](CC(=O)O)C3)ccc2C(=O)NC2CCCCC2)c1    5.34
9. CC(C)CCOc1nc(N2C[C@@H]3[C@H](C2)[C@H]3C(=O)O)ccc1C(=O)NCc1cccc(O)c1    5.20
10. CC(C)CCOc1nc(N2C[C@@H]3[C@H](C2)[C@H]3C(=O)O)ccc1C(=O)NC1CCC(O)CC1 (stereo partly drawn)    5.09

(A) CC(C)CCOc1nc(N2CCC[C@@H](CC(=O)O)C2)ccc1C(=O)NC1CCCCC1
(B) O=C(O)C[C@@H]1CCCN(c2ccc(C(=O)NC3CCCCC3)c(OC3CCCCC3)n2)C1
Exam item: Higher pIC50: A or B ? State the label of the item chosen.
Marked response: A
(A: 5.19, B: 4.92)

(a) CC(C)CCOc1nc(N2CCC[C@@H](CC(=O)O)C2)ccc1C(=O)NC1C2CC3CC1CC(O)(C3)C2 (stereo partly drawn)
(b) CC(Oc1nc(N2CCC[C@@H](CC(=O)O)C2)ccc1C(=O)NC1CCCCC1)C1CC1 (stereo partly drawn)
Exam item: Record comparison, field pIC50: mark the lower of a and b . Answer by stating the label of the chosen item.
Marked response: b
